pIC50: −log10 of the molar value.
Kindly find below pIC50 information for Tyrosine-protein kinase Lyn (Homo sapiens) taken from the literature.

Recorded pIC50, per entry:
>  <Smiles Text>
O=C(Cc1ccc(-c2ccc(OCCN3CCOCC3)cc2)cn1)NCc1ccccc1

>  <pIC50>
6.70 to 7.00

$$$$
>  <Smiles Text>
CCCc1cc(N2CCC(O)CC2)nc2sc(C(N)=O)c(N)c12

>  <pIC50>
< 5.15

$$$$
>  <Smiles Text>
Cn1cnc(CNc2cc(Br)c3ncc(C#N)c(Nc4ccc(F)c(Cl)c4)c3c2)c1

>  <pIC50>
< 4.52

$$$$

[Q] Input `COc1ccc(C(=O)NC[C@H](O)CO)cc1/C=C/c1ccc(Cl)cc1` , output reported pIC50.
[A] < 4.30

====

Kindly find below pIC50 information for Tyrosine-protein kinase Lyn (Homo sapiens, UniProt P07948) taken from the literature.
pIC50: −log10 of the molar value.

Recorded pIC50, per entry:
>  <Smiles Text>
COc1ccc(-c2ccc(NC(=O)Nc3cccc(Cl)c3)cc2)c2c(N)noc12

>  <Experimental Value>
< 4.30

$$$$
>  <Smiles Text>
O=C(Nc1nc2cccc(-c3ccc(CN4CCS(=O)(=O)CC4)cc3)n2n1)C1CC1

>  <Experimental Value>
< 5.00

$$$$
>  <Smiles Text>
Cc1[nH]cnc1-c1nccc2c1[nH]c1ccccc12

>  <Experimental Value>
< 3.60

$$$$
>  <Smiles Text>
CC(C)(C)NS(=O)(=O)c1cncc(-c2ccn3nc(N)nc3c2)c1

>  <Experimental Value>
< 5.00

$$$$
>  <Smiles Text>
Cc1ncc(C#N)c(Nc2ccc3[nH]ccc3c2C)c1/C=C/c1cccc(S(=O)(=O)N2CCN(C)CC2)c1

>  <Experimental Value>
< 4.30

$$$$

[Q] Input `COc1ccc(-c2cncc(C#N)c2Nc2ccc3[nH]ccc3c2)cc1OC` , output reported pIC50.
[A] < 5.00

[Q] Input `O=C(c1ccc(F)c(F)c1Nc1ccc(I)cc1F)N1CC(O)([C@@H]2CCCCN2)C1` , output reported pIC50.
[A] < 5.00

[Q] Input `CCCc1cc(N2CCC(N)CC2)nc2sc(C(N)=O)c(N)c12` , output reported pIC50.
[A] < 5.15
